test system: OVCAR-8 ovarian; experiment: NCI tumour cell line growth inhibition, 48 h
Criterion: TGI meeting or surpassing 10 µM. Met: satisfied. Not met: not satisfied.

Compound	Assigned Category
O=C1C[C@@H](Sc2ccccc2)C2(OCCO2)C2ON3CCCC[C@H]3[C@H]12 (stereo partly specified)	satisfied
COC(=O)Cc1cc2c(cc1C(=O)c1ccc(N)cc1)OCO2	satisfied
ClCc1ccccc1Cn1cnc2c(Cl)nc(Cl)nc21	not satisfied
Cc1ccc(-c2cc(-c3ccccc3)nc(N)n2)c(O)c1	satisfied
Cc1cc(C(=O)NCCN(C)C)c2nc3ccccc3cc2c1	not satisfied
CC1CCCc2sc3nc(NNC(=O)c4cnccn4)n(-c4ccccc4)c(=O)c3c21 (stereo unspecified)	satisfied
c1ccc2c(c1)nnn2CN1CCOCC1	satisfied
OC1CCCN(C2(c3cccs3)CCCCC2)C1 (stereo unspecified)	satisfied
COc1ccc(/C(C)=C(\c2ccc(Cl)cc2)c2ccc(OCCN3CCCCC3)cc2)cc1	satisfied
O=C(C[n+]1cccc2cc(Cl)ccc21)c1ccc2c(c1)CCCC2	satisfied

* * *

test system: BT-549 breast; experiment: NCI tumour cell line growth inhibition, 48 h
Where a SMILES comes first, the peptide text is derived from it. Square brackets hold non-standard residues; d marks the D form. Bridges are numbered along the chain shown (N, C = ends). Peptide text beside a SMILES is read from it. [ ]: non-standard residue; d: D form. The star is where a group is joined. * marks the point of attachment. ξ: configuration not given here. X26 = O=C(/C=C/C=C/C=C/C=C/C=C/C(=O)*)NC1=C(O)CCC1=O; Pro(4R-Me) = C[C@H]1CN[C@H](C(=O)O)C1; NMeA = CN[C@@H](C)C(=O)O; ξF = NC(Cc1ccccc1)C(=O)O; Boc = CC(C)(C)OC(=O)*; OBn = c1ccc(CO*)cc1; ξA = CC(N)C(=O)O
# TGI listing for each entry below

Compound	TGI
CC1NC(=O)[C@H](C)N(C)C(=O)[C@@H]2CCCN2C(=O)[C@@H](NC(=O)C(Cc2ccccc2)NC(=O)/C=C/C=C/C=C/C=C/C=C/C(=O)NC2=C(O)CCC2=O)COC(=O)[C@@H]2C[C@@H](C)CN2C1=O (stereo partly drawn) (X26-[ξF]SP[NMeA][ξA][Pro(4R-Me)]; ester 2-C)	> 100 µM
O=C1Nc2ccccc2/C1=C\c1c(-c2ccccc2)nc2ccccn12	50.9 µM
CC(=O)OC1CN2CCC1CC2 (centres undefined)	> 100 µM
C[C@@H](NC(=O)CNC(=O)OC(C)(C)C)C(=O)N[C@@H](Cc1ccccc1)C(=O)OCc1ccccc1 (Boc-Gly-[dA]-Phe-OBn)	> 100 µM

* * *

system: NCI-H522 lung; test: NCI tumour cell line growth inhibition, 48 h; in the data active = GI50 below about 0.43 µM; inactive = the rest
Outcome codes: active, inactive

Smi	Assigned Category
O=C(c1ccco1)c1nc2ccc(Cl)cc2[n+]([O-])c1C(F)(F)F	inactive
C=CC(=O)N1CCN(CCCn2c(=O)c(-c3c(Cl)c(OC)cc(OC)c3Cl)cc3cnc(NC)nc32)CC1	inactive
COc1cc(/C=C/C(=O)c2ccc(Nc3nc(NCCO)nc(N4CCOCC4)n3)cc2)cc(OC)c1OC	inactive
COc1cccc2[nH]c3c4c(c5c(c3c12)C(=O)N(CN1CCN(C)CC1)C5=O)CCC4	inactive
C1C[OH+]CC[OH+]CC[OH+]CC[OH+]CC[OH+]CC[OH+]1.[Cl-].[V]	inactive
COC1=C(OC)C(=O)C(CCCCCCCCCC[P+](c2ccccc2)(c2ccccc2)c2ccccc2)=C(C)C1=O	active
N#CC1(Nc2ccc(Br)cc2)CCCC1	inactive
O=C1Nc2ccccc2/C1=C\c1c(-c2ccccc2)nc2ccccn12	inactive
NC(N)=NN=C(c1ccccc1)c1ccccc1	inactive
C[CH2][Sn]([CH2]C)([O]C(=O)c1ccccc1F)[O]C(=O)c1ccccc1F	inactive

* * *

tested on: EKVX NSCLC; assay: NCI tumour cell line growth inhibition, 48 h; in the data active = GI50 below about 0.43 µM; inactive = the rest
Outcome codes: yes = active, no = inactive

Compound	Tested On	Assigned Category
COc1cc(-c2nccn2-c2ccc3ccccc3c2)cc(OC)c1OC	EKVX NSCLC	yes
C=CC(=O)N1CCN(CCCn2c(=O)c(-c3c(Cl)c(OC)cc(OC)c3Cl)cc3cnc(NC)nc32)CC1	EKVX NSCLC	no
O=C1/C(=C/c2ccccc2)CN(C(=O)CCN2CCC(=NO)CC2)C/C1=C\c1ccccc1	EKVX NSCLC	no
Clc1ccc(C(Cn2ccnc2)OCc2ccsc2Cl)c(Cl)c1 (stereo not given)	EKVX NSCLC	no
Nc1n[nH]c2cccc(C#Cc3cccc(NC(=O)c4ccc(N5CCOCC5)c(C(F)(F)F)c4)c3)c12	EKVX NSCLC	no
ClCc1ccccc1Cn1cnc2c(Cl)nc(Cl)nc21	EKVX NSCLC	yes
NC(N)=NN=C(c1ccccc1)c1ccccc1	EKVX NSCLC	no
CC[C@H](C)[C@H](NC(=O)c1ccccn1)C(=O)N(C)[C@H](C[C@@H](OC(C)=O)c1nc(C(=O)N[C@@H](Cc2ccccc2)C[C@H](C)C(=O)OC)cs1)C(C)C	EKVX NSCLC	no
O=C(Cc1n[nH]c(=O)c2ccccc12)OCc1c(Cl)cccc1Cl	EKVX NSCLC	no
COc1cc2c(/C=C3/C(=O)Nc4c3ccc3ccccc43)c(Cl)n(C)c2cc1C	EKVX NSCLC	yes

* * *

tested on: HOP-92 NSCLC; assay: NCI tumour cell line growth inhibition, 48 h
# TGI listing for each entry below

Compound	TGI
CC(C)(C)OC(=O)NCCC1SC2C=CC1C2 (stereo unspecified)	> 100 µM
CCNCCCNc1c2ccccc2nc2ccccc12	3.11 µM
COc1cc2c(c(OC)c1OC)-c1ccc(SC)c(=O)cc1[C@@H](NCc1ccccc1[N+](=O)[O-])CC2	> 100 µM
Cc1ccc(-c2cc(-c3ccccc3)nc(N)n2)c(O)c1	> 100 µM
COC(=O)C(Cc1c[nH]c2ccccc12)NP(=O)(O)OCC1OC(n2ccc(N)nc2=O)C(O)C1O (stereo unspecified)	> 100 µM
COc1cc2c(/C=C3/C(=O)Nc4c3ccc3ccccc43)c(Cl)n(C)c2cc1C	22.4 µM

* * *

# TGI listing for each entry below
tested on: CAKI-1 renal; assay: NCI tumour cell line growth inhibition, 48 h

Compound	TGI
CCO/C(O)=C(/C(=N)N1CCOCC1)C(=O)Nc1ccc(Cl)cc1	> 100 µM
COc1cc2c(c(O)c1OC)C(=O)C1CCC(=O)N1C2c1cccc2ccccc12 (stereo unspecified)	> 100 µM
Clc1ccc(COc2ccccc2/C=N/c2c(-c3ccco3)nc3ccccn23)c(Cl)c1	> 100 µM
CC1CCC2C(C)(C)CC3(C)CCC1C23O (stereo unspecified)	27.2 µM
C/C=C(/C)C(=O)O[C@H]1CCN2CC=C(COC(=O)[C@@](O)([C@H](C)OC)C(C)(C)O)[C@H]12	> 100 µM
CSc1nc(-c2cc3ccccc3o2)cc(-c2ccc(Cl)cc2)c1C#N	> 73.4 µM

* * *

tested on: A549 NSCLC; assay: NCI tumour cell line growth inhibition, 48 h; in the data active means GI50 below about 0.43 µM; inactive means the rest
Where a SMILES comes first, the peptide text is derived from it. [ ]: non-standard residue; d: D form. The star is where a group is joined. Dolaproine = CO[C@@H]([C@@H]1CCCN1)[C@@H](C)C(=O)O; Dil = CC[C@H](C)[C@H](NC)[C@@H](CC(=O)O)OC; X2 = C[C@@H](N*)[C@@H](O)c1ccccc1; NMeV = CN[C@H](C(=O)O)C(C)C
Outcome codes: yes = active, no = inactive

Molecule	Assigned Category
ClCc1ccccc1Cn1cnc2c(Cl)nc(Cl)nc21	no
COc1cccc2[nH]c3c4c(c5c(c3c12)C(=O)N(CN1CCN(C)CC1)C5=O)CCC4	no
CCCC[C@H](NC(=O)[C@H]1CCCCN1C)C(=O)N(C)[C@H](C[C@@H](OC(C)=O)c1nc(C(=O)N[C@@H](Cc2ccccc2)C[C@H](C)C(=O)OCC)cs1)C(C)C	yes
O=C(c1ccc(Cl)c(Cl)c1)N1CCN(C(=O)c2ccc(Cl)c(Cl)c2)C1=S	no
COc1ccc(/C(C)=C(\c2ccc(Cl)cc2)c2ccc(OCCN3CCCCC3)cc2)cc1	no
Clc1ccc2c(N3CCN(c4ccnc(NC5CCCCC5)n4)CC3)ccnc2c1	no
Cc1ccc(S(=O)(=O)c2ccccc2)cc1	no
C[CH2][Sn]([CH2]C)([O]C(=O)c1ccccc1F)[O]C(=O)c1ccccc1F	no
C1C[OH+]CC[OH+]CC[OH+]CC[OH+]CC[OH+]CC[OH+]1.[Cl-].[V]	no
CC[C@H](C)[C@@H]([C@@H](CC(=O)N1CCC[C@H]1[C@H](OC)[C@@H](C)C(=O)N[C@H](C)[C@@H](O)c1ccccc1)OC)N(C)C(=O)[C@@H](NC(=O)[C@@H](NC)C(C)C)C(C)C (H-[NMeV]V[Dil][Dolaproine]-X2)	yes
COc1cc(/C=C/C(=O)c2ccc(Nc3nc(NCCO)nc(N4CCOCC4)n3)cc2)cc(OC)c1OC	no
O=C(Nc1ncc(Cc2ccccc2)s1)c1sc2ccccc2c1Cl	no
CC[C@H](C)[C@H](NC(=O)c1ccccn1)C(=O)N(C)[C@H](C[C@@H](OC(C)=O)c1nc(C(=O)N[C@@H](Cc2ccccc2)C[C@H](C)C(=O)OC)cs1)C(C)C	no
Nc1n[nH]c2cccc(C#Cc3cccc(NC(=O)c4ccc(N5CCOCC5)c(C(F)(F)F)c4)c3)c12	no
O=C1/C(=C/c2ccccc2)CN(C(=O)CCN2CCC(=NO)CC2)C/C1=C\c1ccccc1	no
CNC(=O)c1ccccc1Nc1cc(Nc2ccc(N3CCOCC3)cc2OC)ncc1C(F)(F)F	no
C=CCN1C(=O)c2cccc3c(N4CCOCC4)ccc(c23)C1=O	yes
COc1cccc2c1C(=O)c1c(O)c3c(c(O)c1C2=O)C[C@@](O)(C(=O)CO)C[C@@H]3OC1CC2C(OCN3CN2COC2C(C)OC(O[C@H]4C[C@](O)(C(=O)CO)Cc5c(O)c6c(c(O)c54)C(=O)c4c(OC)cccc4C6=O)CC23)C(C)O1 (some centres undefined)	yes
O=C(c1ccco1)c1nc2ccc(Cl)cc2[n+]([O-])c1C(F)(F)F	no
